- Assayed system: FtsQ (Escherichia coli)
- Construct: soluble periplasmic domain (FtsQp), 15N-labeled, N-terminal tags cleaved by TEV
- Sequence (P06136 50-276): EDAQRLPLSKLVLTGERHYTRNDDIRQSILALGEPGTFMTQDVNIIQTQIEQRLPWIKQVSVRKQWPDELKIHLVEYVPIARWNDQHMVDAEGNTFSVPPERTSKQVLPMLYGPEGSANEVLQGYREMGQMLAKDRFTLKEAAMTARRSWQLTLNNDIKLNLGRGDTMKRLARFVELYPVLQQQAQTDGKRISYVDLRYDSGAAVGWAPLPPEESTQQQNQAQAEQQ
- Assay protocol: 1H, […]-HSQC NMR chemical shift perturbation; TINS primary screen (T/R […])
- Assay type: binding
Reported metric: Kd

Notebook: N[C@@H](Cc1cn(Cc2ccccc2)cn1)C(=O)O [compound 1] , Kd read as > 1 mM
